Hi there, I'd appreciate the recorded pest or weed control at 50 µg/cm2 for every entry that follows.
System: Cabbage Looper (Trichoplusia ni, TRIPNI)
Test: Bioassays on Cabbage Looper (CL), 128-well diet tray assay
Format: in vivo
Details: Trichoplusia ni; Cabbage Looper; rating class; read-out: CL

Hey, quick one: what's pest or weed control at 50 µg/cm2 for each of these?
1. O=C(Nc1c(F)ccc([N+](=O)[O-])c1F)c1cc(NC(=O)[C@H]2[C@H](c3cc(Cl)c(Cl)c(Cl)c3)C2(Cl)Cl)cc(F)c1F
2. CC(=O)Nc1c(F)cc(F)c(NC(=O)c2cc(NC(=O)[C@H]3[C@H](c4ccc(F)c(C(F)(F)F)c4)C3(Cl)Cl)ccc2Cl)c1F
3. O=C(Nc1ccc(F)c(NC(=O)C2CCCOC2)c1F)c1cc(NC(=O)[C@H]2[C@H](c3ccc(F)c(C(F)(F)F)c3)C2(Cl)Cl)ccc1Cl (stereo partly drawn)

1: 50 to 100%; 2: 50 to 100%; 3: 50 to 100%
